The origin of these recorded values is patent US20210346398A1.

Test system: T-47D cells
Assay: WST-1 proliferation assay of T-47D cells
Format: cell-based, human
Settings: 4 days, OHT 10 or 20 μM, EN 10 μM, ETM 25 nM, FUL 1.0 μM, EXE 0.1 μM, Pab 50 nM, Doc 1.0 nM
Record form. Attribute: Single drug: absorbance at 450 nm as % of solvent control. Fill in for each entry.

Indicate its recorded Single drug: absorbance at 450 nm as % of solvent control; the molecule in question is CC(=O)O[C@@]12CO[C@@H]1C[C@H](O)[C@@]1(C)C(=O)[C@H](O)C3=C(C)[C@@H](OC(=O)[C@H](O)[C@@H](NC(=O)OC(C)(C)C)c4ccccc4)C[C@@](O)([C@@H](OC(=O)c4ccccc4)[C@H]21)C3(C)C
31 % of solvent control

Indicate its recorded Single drug: absorbance at 450 nm as % of solvent control; the molecule in question is C=C1C[C@@H]2[C@H](CC[C@]3(C)C(=O)CC[C@@H]23)[C@@]2(C)C=CC(=O)C=C12
70 % of solvent control

Indicate its recorded Single drug: absorbance at 450 nm as % of solvent control; the molecule in question is CC/C(=C(\c1ccc(O)cc1)c1ccc(OCCNC)cc1)c1ccccc1 [Endoxifen]
54 % of solvent control
